- Tested on: 349418-098-R-PDC complex spheroid viability
- assay remarks: Anticancer human tumor 349418-098-R-PDC patient-derived lung adenocarcinoma cell line growth inhibition [RAS]
- measurement parameters: second compound 0.1 µM; first compound 1 µM; stronger effect = lower value
Just a reminder that ties go to Not fulfilled: only viability, T/C strictly below 20% counts as Fulfilled.

Some solved entries appear below for comparison.
I wonder whether NC1c2ccccc2OC12CCN(c1cnc3c(N4CCCc5ncccc54)n[nH]c3n1)CC2 (centres undefined) + C#Cc1c(F)ccc2cc(O)cc(-c3ncc4c(N5CC6CCC(C5)N6)nc(OCC56CCCN5CC(F)C6)nc4c3F)c12 has viability, T/C below 20%. Can you tell?
Not fulfilled

I wonder whether CC(=O)OC12COC1CC(O)C1(C)C(=O)C(O)C3=C(C)C(OC(=O)C(O)C(NC(=O)OC(C)(C)C)c4ccccc4)CC(O)(C(OC(=O)c4ccccc4)C21)C3(C)C (centres undefined) + C=CC(=O)N1CCN(c2nc(OCC3CCCN3C)nc3c(F)c(-c4nc(N)cc(C)c4C(F)(F)F)c(Cl)cc23)C(C)C1 has viability, T/C below 20%. Can you tell?
Fulfilled

I wonder whether CCN1CCN(Cc2ccc(Nc3ncc(F)c(-c4cc(F)c5nc(C)n(C(C)C)c5c4)n3)nc2)CC1 + C#Cc1c(F)ccc2cc(O)cc(-c3ncc4c(N5CC6CCC(C5)N6)nc(OCC56CCCN5CC(F)C6)nc4c3F)c12 has viability, T/C below 20%. Can you tell?
Fulfilled

Further cases:
I wonder whether O=C(c1ccc(F)c(F)c1Nc1ccc(I)cc1F)N1CC(O)([C@@H]2CCCCN2)C1 + C=CC(=O)N1CCN(c2nc(OCC3CCCN3C)nc3c(F)c(-c4nc(N)cc(C)c4C(F)(F)F)c(Cl)cc23)C(C)C1 has viability, T/C below 20%. Can you tell?
Fulfilled

I wonder whether CC(Nc1ccc2c(c1)OCCn1cc(N3C(=O)OCC3C(F)F)nc1-2)C(N)=O (centres undefined) + C=CC(=O)N1CCN(c2nc(OCC3CCCN3C)nc3c(F)c(-c4nc(N)cc(C)c4C(F)(F)F)c(Cl)cc23)C(C)C1 has viability, T/C below 20%. Can you tell?
Fulfilled

I wonder whether CC1(O)CCCC1n1c(=O)c(C(F)F)cc2cnc(NC3CCN(S(C)(=O)=O)CC3)nc21 (centres undefined) + C=CC(=O)N1CCN(c2nc(OCC3CCCN3C)nc3c(F)c(-c4nc(N)cc(C)c4C(F)(F)F)c(Cl)cc23)C(C)C1 has viability, T/C below 20%. Can you tell?
Not fulfilled

I wonder whether C=CC(=O)Nc1cc(Nc2nccc(-c3cn(C)c4ccccc34)n2)c(OC)cc1N(C)CCN(C)C + C#Cc1c(F)ccc2cc(O)cc(-c3ncc4c(N5CC6CCC(C5)N6)nc(OCC56CCCN5CC(F)C6)nc4c3F)c12 has viability, T/C below 20%. Can you tell?
Not fulfilled

I wonder whether CC(=O)OC12COC1CC(O)C1(C)C(=O)C(O)C3=C(C)C(OC(=O)C(O)C(NC(=O)OC(C)(C)C)c4ccccc4)CC(O)(C(OC(=O)c4ccccc4)C21)C3(C)C (centres undefined) + C#Cc1c(F)ccc2cc(O)cc(-c3ncc4c(N5CC6CCC(C5)N6)nc(OCC56CCCN5CC(F)C6)nc4c3F)c12 has viability, T/C below 20%. Can you tell?
Fulfilled

* * *

Overview of reported viability, T/C across a group of compounds:
- Test system: 349418-098-R-PDC complex spheroid viability
- assay remarks: Anticancer human tumor 349418-098-R-PDC cell line growth inhibition [RAS];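 note: spheroids exposed to compound for seven days before viability readout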
- measurement parameters: second compound 0.1 µM; first compound 1 µM; stronger effect = lower value
Express the result in % but write the number alone.

Recorded results for 2 compounds are shown here.
Report viability, T/C, nothing else, for this compound: C=CC(=O)Nc1cc(Nc2nccc(-c3cn(C)c4ccccc34)n2)c(OC)cc1N(C)CCN(C)C + C=CC(=O)N1CCN(c2nc(OCC3CCCN3C)nc3c(F)c(-c4nc(N)cc(C)c4C(F)(F)F)c(Cl)cc23)C(C)C1
69.2

Report viability, T/C, nothing else, for this compound: NC1c2ccccc2OC12CCN(c1cnc3c(N4CCCc5ncccc54)n[nH]c3n1)CC2 (stereo not drawn) + C=CC(=O)N1CCN(c2nc(OCC3CCCN3C)nc3c(F)c(-c4nc(N)cc(C)c4C(F)(F)F)c(Cl)cc23)C(C)C1
101

Further cases:
Report viability, T/C, nothing else, for this compound: Cc1nc(N2CCC3(CC2)COC(C)C3N)c(CO)nc1Sc1ccnc(N)c1Cl (stereo not drawn) + C#Cc1c(F)ccc2cc(O)cc(-c3ncc4c(N5CC6CCC(C5)N6)nc(OCC56CCCN5CC(F)C6)nc4c3F)c12
88.8

* * *

Overview of reported viability, T/C across a group of molecules:
- Tested on: 349418-098-R-PDC complex spheroid viability
- assay remarks: Anticancer human tumor 349418-098-R-PDC cell line growth inhibition [RAS];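 note: spheroids exposed to compound for seven days before viability readout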
- measurement parameters: second compound 1 µM; first compound 10 µM; stronger effect = lower value

Recorded results for 2 molecules are shown here.
Report viability, T/C, nothing else, for this molecule: NC1c2ccccc2OC12CCN(c1cnc3c(N4CCCc5ncccc54)n[nH]c3n1)CC2 (stereo not given) + C=CC(=O)N1CCN(c2nc(OCC3CCCN3C)nc3c(F)c(-c4nc(N)cc(C)c4C(F)(F)F)c(Cl)cc23)C(C)C1
69.1%

Report viability, T/C, nothing else, for this molecule: CC1(O)CCCC1n1c(=O)c(C(F)F)cc2cnc(NC3CCN(S(C)(=O)=O)CC3)nc21 (stereo not given) + C#Cc1c(F)ccc2cc(O)cc(-c3ncc4c(N5CC6CCC(C5)N6)nc(OCC56CCCN5CC(F)C6)nc4c3F)c12
4.34%

Further cases:
Report viability, T/C, nothing else, for this molecule: CC(C)NCC(C(=O)N1CCN(c2ncnc3c2C(C)CC3O)CC1)c1ccc(Cl)cc1 (stereo not given) + C=CC(=O)N1CCN(c2nc(OCC3CCCN3C)nc3c(F)c(-c4nc(N)cc(C)c4C(F)(F)F)c(Cl)cc23)C(C)C1
10.2%

Report viability, T/C, nothing else, for this molecule: CC(C)NCC(C(=O)N1CCN(c2ncnc3c2C(C)CC3O)CC1)c1ccc(Cl)cc1 (stereo not given) + C#Cc1c(F)ccc2cc(O)cc(-c3ncc4c(N5CC6CCC(C5)N6)nc(OCC56CCCN5CC(F)C6)nc4c3F)c12
7.4%

Report viability, T/C, nothing else, for this molecule: CCC(CC)c1cc(NC2CCC(N)C2)n2nccc2n1 (stereo not given) + C#Cc1c(F)ccc2cc(O)cc(-c3ncc4c(N5CC6CCC(C5)N6)nc(OCC56CCCN5CC(F)C6)nc4c3F)c12
3.26%

* * *

- Test system: 349418-098-R-PDC complex spheroid viability
- assay remarks: Anticancer human tumor 349418-098-R-PDC cell line growth inhibition [RAS];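 note: spheroids exposed to compound for seven days before viability readout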
- measurement parameters: second compound 1 µM; first compound 10 µM; stronger effect = lower value
endpoint name: viability, T/C (%)
Express the result in % but write the number alone.

Recorded results for 2 molecules are shown here.
Supply viability, T/C measured with 349418-098-R-PDC complex spheroid viability for CC1(O)CCCC1n1c(=O)c(C(F)F)cc2cnc(NC3CCN(S(C)(=O)=O)CC3)nc21 (stereo not drawn) + C=CC(=O)N1CCN(c2nc(OCC3CCCN3C)nc3c(F)c(-c4nc(N)cc(C)c4C(F)(F)F)c(Cl)cc23)C(C)C1 .
4.16

Supply viability, T/C measured with 349418-098-R-PDC complex spheroid viability for C[C@@H](NC(=O)c1ncnc(N)c1Cl)c1ncc(C(=O)Nc2cc(C(F)(F)F)c(Cl)cn2)s1 + C=CC(=O)N1CCN(c2nc(OCC3CCCN3C)nc3c(F)c(-c4nc(N)cc(C)c4C(F)(F)F)c(Cl)cc23)C(C)C1 .
30

// switching to the query molecule
Supply viability, T/C measured with 349418-098-R-PDC complex spheroid viability for C[C@@H](NC(=O)c1ncnc(N)c1Cl)c1ncc(C(=O)Nc2cc(C(F)(F)F)c(Cl)cn2)s1 + C#Cc1c(F)ccc2cc(O)cc(-c3ncc4c(N5CC6CCC(C5)N6)nc(OCC56CCCN5CC(F)C6)nc4c3F)c12 .
34.5

* * *

- Tested on: 349418-098-R-PDC complex spheroid viability
- assay remarks: Anticancer human tumor 349418-098-R-PDC cell line growth inhibition [RAS];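 note: spheroids exposed to compound for seven days before viability readout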
- measurement parameters: curve of first compound; second compound 0.1 µM
endpoint name: IC50 (nM)
Express the result in nM but write the number alone.

Report IC50, nothing else, for this compound: CCC(CC)c1cc(NC2CCC(N)C2)n2nccc2n1 (stereo not given) + C=CC(=O)N1CCN(c2nc(OCC3CCCN3C)nc3c(F)c(-c4nc(N)cc(C)c4C(F)(F)F)c(Cl)cc23)C(C)C1
884

Report IC50, nothing else, for this compound: CC1(O)CCCC1n1c(=O)c(C(F)F)cc2cnc(NC3CCN(S(C)(=O)=O)CC3)nc21 (stereo not given) + C=CC(=O)N1CCN(c2nc(OCC3CCCN3C)nc3c(F)c(-c4nc(N)cc(C)c4C(F)(F)F)c(Cl)cc23)C(C)C1
62.2

Report IC50, nothing else, for this compound: CC1(C)CCC(Nc2ncc(C(F)(F)F)c(-c3c[nH]c4c(P(C)(C)=O)c(C#N)ccc34)n2)CN1 (stereo not given) + C=CC(=O)N1CCN(c2nc(OCC3CCCN3C)nc3c(F)c(-c4nc(N)cc(C)c4C(F)(F)F)c(Cl)cc23)C(C)C1
1.07

Report IC50, nothing else, for this compound: CC(Nc1ccc2c(c1)OCCn1cc(N3C(=O)OCC3C(F)F)nc1-2)C(N)=O (stereo not given) + C=CC(=O)N1CCN(c2nc(OCC3CCCN3C)nc3c(F)c(-c4nc(N)cc(C)c4C(F)(F)F)c(Cl)cc23)C(C)C1
114

Report IC50, nothing else, for this compound: NC1c2ccccc2OC12CCN(c1cnc3c(N4CCCc5ncccc54)n[nH]c3n1)CC2 (stereo not given) + C#Cc1c(F)ccc2cc(O)cc(-c3ncc4c(N5CC6CCC(C5)N6)nc(OCC56CCCN5CC(F)C6)nc4c3F)c12
9340

Further cases:
Report IC50, nothing else, for this compound: CC(C)n1nc(-c2ccc3oc(N)nc3c2)c2c(N)ncnc21 + C#Cc1c(F)ccc2cc(O)cc(-c3ncc4c(N5CC6CCC(C5)N6)nc(OCC56CCCN5CC(F)C6)nc4c3F)c12
3.71

Report IC50, nothing else, for this compound: CC(C)NCC(C(=O)N1CCN(c2ncnc3c2C(C)CC3O)CC1)c1ccc(Cl)cc1 (stereo not given) + C=CC(=O)N1CCN(c2nc(OCC3CCCN3C)nc3c(F)c(-c4nc(N)cc(C)c4C(F)(F)F)c(Cl)cc23)C(C)C1
545
